- Measurement target: T1, HSP70 (human HSP70; the antigen of the binning, humanization and variant binding assays) (human, UniProt P0DMV8 1-641, limits assumed)
- T1 construct: also called hu HSP70
- T1 sequence (P0DMV8 whole entry, change not shown): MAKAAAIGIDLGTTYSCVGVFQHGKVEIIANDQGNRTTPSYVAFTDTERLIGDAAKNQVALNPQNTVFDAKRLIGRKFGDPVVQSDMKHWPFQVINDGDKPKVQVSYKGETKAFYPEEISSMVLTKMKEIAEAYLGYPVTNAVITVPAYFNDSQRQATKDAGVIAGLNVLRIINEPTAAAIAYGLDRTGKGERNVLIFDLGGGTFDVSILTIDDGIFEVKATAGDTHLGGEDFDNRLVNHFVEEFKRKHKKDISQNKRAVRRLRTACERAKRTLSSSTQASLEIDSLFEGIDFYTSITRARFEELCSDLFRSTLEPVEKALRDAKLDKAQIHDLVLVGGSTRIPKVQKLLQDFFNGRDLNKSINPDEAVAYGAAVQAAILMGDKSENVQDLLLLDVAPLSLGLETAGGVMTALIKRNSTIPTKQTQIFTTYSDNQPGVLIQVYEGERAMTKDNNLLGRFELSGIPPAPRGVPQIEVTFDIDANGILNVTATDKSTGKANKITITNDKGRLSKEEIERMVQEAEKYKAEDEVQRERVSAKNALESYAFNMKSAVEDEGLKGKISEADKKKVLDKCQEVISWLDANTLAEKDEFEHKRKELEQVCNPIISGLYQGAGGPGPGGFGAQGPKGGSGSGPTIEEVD
- Assay notes: BLI, anti-human Fc capture, antigen 100 nM
Endpoint name: % Diss (%)
Answers are plain numbers, in %.

Worked examples follow.
h77A-1.42 (antibody, V domains shown, captured by anti-human Fc) VH: QIHLVQSGAEVKKPGASVKVSCKASGYTFTNYGMNWVRQAPGQGLEWMGWINTYTGEPTYADDFKGRFTFTTDTSTSTAYMELRSLRSDDTAVYFCTRYDHRMDYWGQGTLVTVSS VL: EIVLTQSPDSLAVSLGERATINCKSSQSLLNSGTRKNYLAWYQQKAGQSPKLLIYWTSTRESGVPDRFSGSGSGTDFTLTIDSLQAEDVAVYYCKQSYTLYTFGGGTKVEIK    33.5
h77A-1.46 (antibody, V domains shown, captured by anti-human Fc) VH: QIQLVQSGVEVKKPGASVKVSCKASGYTFTNYGMNWVRQAPGQGLEWMGWINTYTGEPTYADDFKGRFTFTTDTSTSTAYMELRSLRSDDTAVYFCARYDHAMDYWGQGTLVTVSS VL: EIVLTQSPDSLAVSLGERATIKCKSSQSLLNSGTRKNYLAWYQKKAGQSPKLLIYWTSTRESGVPDRFSGSGSGTDFTLTIDSLQAEDVAVYYCKQSYTLYTFGGGTKVEIK    6.22
h77A-1.38 (antibody, V domains shown, captured by anti-human Fc) VH: QIQLVQSGTEVKKPGASVKVSCKASGYTFTNYGMNWVRQAPGQGLEWMGWINTYTGEPTYADDFKGRFTFTTDTSTRTAYMELRSLRSDDTAVYFCARYDHLMDYWGQGTLVTVSS VL: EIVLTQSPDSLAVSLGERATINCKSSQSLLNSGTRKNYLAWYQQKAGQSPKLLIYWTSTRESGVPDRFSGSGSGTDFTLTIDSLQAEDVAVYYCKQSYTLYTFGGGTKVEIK    10.5
h77A-1.39 (antibody, V domains shown, captured by anti-human Fc) VH: QIQLVQSGAEVKKPGASVKVSCKASGYTFTNYGMNWVRQAPGQGLEWMGWINTYTGEPTYSDDFKGRFTFTTDTSTRTAYMELRSLRSDDTAVYFCARYDHAMDYWGQGTLVTVSS VL: EIVLTQSPDSLAVSLGERATINCKSSQSLLNSGTRKNYLAWYQQKAGQSPKLLIYWTSTRESGVPDRFSGSGSGTDFTLTIDSLQAEDVAVYYCKQSYNLYTFGGGTKVEIK    21

// returns reported % Diss for input h77A-1.18 (antibody, V domains shown, captured by anti-human Fc) VH: QIQLVQSGAEVKKPGASVKVSCKASGYTFTNYGMNWVRQAPGQGLEWMGWINTYTGEPTYADDFKGRFTFTTDTSTRTAYMELRSLRSDDTAVYFCARYDHAMDYWGQGTLVTVSS VL: EIVLTQSPDSLAVSLGERATINCKSSQSLLNSGTRKNYLAWYQQKAGQSPKLVIYWTSTRESGVPDRFSGSGSGTDFTLTIDSLQAEDVAVYYCKQSYTLYTFGGGTKVEIK
7.15
